- assay.system: human KDR on cells (human, UniProt P35968 20-1356)
- Sequence (P35968 20-1356): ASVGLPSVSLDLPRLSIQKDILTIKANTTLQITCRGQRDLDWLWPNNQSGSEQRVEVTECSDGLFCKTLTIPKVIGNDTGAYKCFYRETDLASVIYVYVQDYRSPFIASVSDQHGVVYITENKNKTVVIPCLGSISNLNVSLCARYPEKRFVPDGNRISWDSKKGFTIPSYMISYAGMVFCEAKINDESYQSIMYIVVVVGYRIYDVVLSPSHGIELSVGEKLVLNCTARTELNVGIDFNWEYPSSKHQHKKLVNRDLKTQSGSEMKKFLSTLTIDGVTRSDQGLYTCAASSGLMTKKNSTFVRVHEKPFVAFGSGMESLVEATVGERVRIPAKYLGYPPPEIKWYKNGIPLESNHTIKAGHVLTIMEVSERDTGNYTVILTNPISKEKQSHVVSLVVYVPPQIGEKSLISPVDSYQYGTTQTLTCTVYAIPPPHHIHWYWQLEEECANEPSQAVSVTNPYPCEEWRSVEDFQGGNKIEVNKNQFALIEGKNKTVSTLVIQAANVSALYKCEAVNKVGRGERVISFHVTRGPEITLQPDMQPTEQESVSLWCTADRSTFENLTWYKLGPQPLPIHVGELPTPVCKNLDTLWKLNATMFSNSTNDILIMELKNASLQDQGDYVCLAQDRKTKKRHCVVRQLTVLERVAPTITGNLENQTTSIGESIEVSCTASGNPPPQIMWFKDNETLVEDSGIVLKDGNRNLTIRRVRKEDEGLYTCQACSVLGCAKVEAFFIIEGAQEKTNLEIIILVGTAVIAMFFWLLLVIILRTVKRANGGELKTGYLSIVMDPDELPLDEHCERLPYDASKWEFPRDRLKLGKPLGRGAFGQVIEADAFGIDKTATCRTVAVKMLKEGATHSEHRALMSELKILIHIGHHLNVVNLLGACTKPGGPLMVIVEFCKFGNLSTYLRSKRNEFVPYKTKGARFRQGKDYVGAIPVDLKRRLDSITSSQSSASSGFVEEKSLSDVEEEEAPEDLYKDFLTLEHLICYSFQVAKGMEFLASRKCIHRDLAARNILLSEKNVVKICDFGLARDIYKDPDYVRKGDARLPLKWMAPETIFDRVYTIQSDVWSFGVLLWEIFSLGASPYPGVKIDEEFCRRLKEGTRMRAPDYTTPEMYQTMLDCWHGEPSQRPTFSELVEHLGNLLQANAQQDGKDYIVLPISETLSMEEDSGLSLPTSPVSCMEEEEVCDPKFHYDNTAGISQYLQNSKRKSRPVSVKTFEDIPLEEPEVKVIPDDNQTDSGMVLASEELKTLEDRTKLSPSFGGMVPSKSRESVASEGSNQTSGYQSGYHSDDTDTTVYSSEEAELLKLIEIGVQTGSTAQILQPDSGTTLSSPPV
- assay.details: cell-based or functional assay
value.kind: % Inhibition (N = 2) of VEGF-C-mediated KDR activity, antibody 1 nM (%)

INSERT INTO assay_data (binder, data_value) VALUES
  ('32F4 (antibody, V domains shown) VH: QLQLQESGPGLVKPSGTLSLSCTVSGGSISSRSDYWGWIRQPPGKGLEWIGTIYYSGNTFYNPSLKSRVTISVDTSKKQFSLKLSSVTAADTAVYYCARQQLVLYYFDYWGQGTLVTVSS VL: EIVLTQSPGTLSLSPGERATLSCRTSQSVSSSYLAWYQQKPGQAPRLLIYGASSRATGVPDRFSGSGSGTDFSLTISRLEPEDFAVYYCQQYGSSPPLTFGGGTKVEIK', 31),
  ('33E1 (antibody, V domains shown) VH: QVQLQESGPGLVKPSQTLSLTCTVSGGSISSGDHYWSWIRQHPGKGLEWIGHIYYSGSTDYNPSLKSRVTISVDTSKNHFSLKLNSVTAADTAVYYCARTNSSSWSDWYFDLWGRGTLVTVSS VL: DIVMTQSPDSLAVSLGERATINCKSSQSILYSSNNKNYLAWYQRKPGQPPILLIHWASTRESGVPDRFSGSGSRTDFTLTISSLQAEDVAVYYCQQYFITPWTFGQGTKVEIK', 36),
  ('33C3 (antibody, V domains shown, Purified fully human monoclonal antibody from XenoMouse hybridoma (IgG2 or IgG4 strains); also called MAb 33C3) VH: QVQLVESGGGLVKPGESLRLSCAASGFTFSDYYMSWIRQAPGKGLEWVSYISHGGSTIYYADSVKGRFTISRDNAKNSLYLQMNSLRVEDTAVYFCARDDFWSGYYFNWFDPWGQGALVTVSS VL: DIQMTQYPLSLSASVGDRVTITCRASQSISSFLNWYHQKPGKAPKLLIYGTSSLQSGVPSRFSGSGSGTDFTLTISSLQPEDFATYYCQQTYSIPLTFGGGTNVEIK', 61),
  ('21H6 (antibody, V domains shown) VH: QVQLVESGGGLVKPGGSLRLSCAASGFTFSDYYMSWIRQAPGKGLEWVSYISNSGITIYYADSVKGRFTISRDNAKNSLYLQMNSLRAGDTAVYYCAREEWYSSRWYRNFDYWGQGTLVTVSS VL: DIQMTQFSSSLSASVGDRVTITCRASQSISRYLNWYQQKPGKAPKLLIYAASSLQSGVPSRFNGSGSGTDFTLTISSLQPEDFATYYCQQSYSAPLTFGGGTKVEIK', 34);
